Catalogue of compounds with associated IC50
- target_under_test: PSG G335A (PSD-95)
- assay_notes: FP displacement (competition) of FITC-15 AA CRIPT by library peptide, IC50 and Ki
- cond: read-out: IC50 (µM), PSG G335A; FP displacement of FITC-15 AA CRIPT probe by PSD library peptide; protein PSG G335A
API: value field is a number in µM; no unit string.

>  <smiles_string>
CC(=O)N[C@@H](Cc1ccc(O)cc1)C(=O)N[C@@H](CC(C)C)C(=O)N[C@@H](C)C(=O)N[C@@H](CC(=O)O)C(=O)N[C@@H](CCC(=O)O)C(=O)N[C@H](C(=O)N[C@@H](CO)C(=O)N[C@@H](C)C(=O)N[C@@H](CO)C(=O)N[C@@H](CC(C)C)C(=O)N[C@@H](C)C(=O)N[C@@H](CCCCN)C(=O)N[C@@H](CCC(N)=O)C(=O)NCC(=O)N[C@@H](CC(C)C)C(=O)O)C(C)C

>  <target_under_test>
PSG G335A (PSD-95)

>  <IC50, µM>
729

$$$$
>  <smiles_string>
CC(=O)N[C@@H](Cc1ccc(O)cc1)C(=O)N[C@@H](CC(=O)O)C(=O)N[C@@H](CO)C(=O)N[C@H](C(=O)N[C@@H](CCC(=O)O)C(=O)N[C@@H](CCC(N)=O)C(=O)N[C@@H](CO)C(=O)N[C@@H](CC(=O)O)C(=O)N[C@H](C(=O)N[C@@H](CCCNC(=N)N)C(=O)N[C@@H](Cc1ccccc1)C(=O)N[C@@H](CO)C(=O)N[C@@H](CO)C(=O)N[C@@H](C)C(=O)N[C@H](C(=O)O)C(C)C)C(C)C)[C@@H](C)O

>  <target_under_test>
PSG G335A (PSD-95)

>  <IC50, µM>
499

$$$$

# ---- query compound ----
Consider CC(=O)N[C@@H](Cc1ccc(O)cc1)C(=O)N[C@@H](CCCCN)C(=O)N[C@@H](CCCCN)C(=O)N[C@H](C(=O)N[C@@H](CC(C)C)C(=O)N[C@@H](CC(=O)O)C(=O)N[C@H](C(=O)N[C@@H](CCCCN)C(=O)N[C@@H](CC(N)=O)C(=O)N[C@@H](Cc1ccc(O)cc1)C(=O)N[C@@H](CCCCN)C(=O)N[C@@H](CCC(N)=O)C(=O)N[C@H](C(=O)N[C@@H](CO)C(=O)N[C@H](C(=O)O)C(C)C)[C@@H](C)O)[C@@H](C)O)C(C)C . Its measured IC50 is 2

----------
- target_under_test: PSG G322A (PSD-95)
- assay_notes: FP displacement (competition) of FITC-15 AA CRIPT by library peptide, IC50 and Ki
- cond: read-out: IC50 (µM), PSG G322A; FP displacement of FITC-15 AA CRIPT probe by PSD library peptide; protein PSG G322A
The following compounds are shown together with reported IC50 values.
Give a bare numeral; the unit µM is implied.

>  <smiles_string>
CC(=O)N[C@@H](Cc1ccc(O)cc1)C(=O)N[C@@H](Cc1ccc(O)cc1)C(=O)N[C@@H](CCC(=O)O)C(=O)N[C@H](C(=O)N[C@@H](CO)C(=O)N[C@@H](Cc1c[nH]cn1)C(=O)N[C@@H](Cc1ccc(O)cc1)C(=O)N1CCC[C@H]1C(=O)N[C@@H](C)C(=O)N[C@@H](CO)C(=O)N1CCC[C@H]1C(=O)N[C@@H](CC(=O)O)C(=O)N[C@@H](CO)C(=O)N[C@@H](Cc1c[nH]c2ccccc12)C(=O)N[C@H](C(=O)O)C(C)C)[C@@H](C)O

>  <IC50, µM>
694

$$$$

Please fill in: IC50 reported for CC(=O)N[C@@H](Cc1ccc(O)cc1)C(=O)N[C@@H](Cc1c[nH]cn1)C(=O)N[C@@H](Cc1c[nH]cn1)C(=O)N[C@H](C(=O)N[C@@H](CO)C(=O)N[C@@H](Cc1ccc(O)cc1)C(=O)N[C@H](C(=O)N[C@@H](C)C(=O)N[C@@H](CO)C(=O)N[C@@H](CCCCN)C(=O)N[C@H](C(=O)N[C@@H](CCC(=O)O)C(=O)N[C@H](C(=O)N[C@H](C(=O)N[C@H](C(=O)O)C(C)C)[C@@H](C)O)C(C)C)[C@@H](C)O)[C@@H](C)O)[C@@H](C)O = 2000

----------
- target_under_test: PSG G322A (PSD-95)
- assay_notes: FP displacement (competition) of FITC-15 AA CRIPT by library peptide, IC50 and Ki
- cond: read-out: Ki (µM), PSG G322A; FP displacement of FITC-15 AA CRIPT probe by acetylated PSD library peptide
value_type: Ki (µM)
A number alone suffices; assume µM.

Previously resolved entries follow.
>  <compound>
CC[C@H](C)[C@H](NC(=O)[C@H](Cc1ccccc1)NC(=O)[C@H](CO)NC(=O)[C@H](CCCNC(=N)N)NC(=O)[C@H](CCCCN)NC(=O)[C@@H]1CCCN1C(=O)[C@H](CCCCN)NC(=O)[C@H](C)NC(=O)[C@H](C)NC(=O)[C@@H](NC(=O)[C@H](Cc1ccc(O)cc1)NC(C)=O)[C@@H](C)O)C(=O)N[C@@H](CCC(=O)O)C(=O)N[C@@H](CO)C(=O)N[C@@H](CC(N)=O)C(=O)N[C@H](C(=O)O)C(C)C [TANC1]

>  <value_type>
Ki

>  <quantitative_result>
9

$$$$
>  <compound>
CSCC[C@H](NC(=O)[C@H](CC(N)=O)NC(=O)[C@H](CCCCN)NC(=O)[C@H](CC(C)C)NC(=O)[C@@H](NC(=O)[C@H](CC(=O)O)NC(=O)[C@H](Cc1ccc(O)cc1)NC(C)=O)C(C)C)C(=O)N[C@H](C(=O)N[C@@H](CC(=O)O)C(=O)N[C@@H](CCCCN)C(=O)N[C@@H](C)C(=O)N1CCC[C@H]1C(=O)N1CCC[C@H]1C(=O)NCC(=O)N[C@H](C(=O)O)C(C)C)[C@@H](C)O [CK2N1]

>  <value_type>
Ki

>  <quantitative_result>
357

$$$$
>  <compound>
CC[C@H](C)[C@H](NC(=O)[C@H](CC(=O)O)NC(=O)[C@H](CCC(N)=O)NC(=O)CNC(=O)[C@@H](NC(=O)[C@H](CC(C)C)NC(=O)[C@@H]1CCCN1C(=O)[C@H](Cc1ccc(O)cc1)NC(C)=O)C(C)C)C(=O)N[C@H](C(=O)N[C@@H](CC(=O)O)C(=O)N[C@@H](CC(C)C)C(=O)N[C@@H](CCC(N)=O)C(=O)N[C@H](C(=O)N[C@@H](CCC(=O)O)C(=O)N[C@H](C(=O)O)C(C)C)[C@@H](C)O)[C@@H](C)CC [ADGRB1]

>  <value_type>
Ki

>  <quantitative_result>
112

$$$$
>  <compound>
CC(=O)N[C@@H](Cc1ccc(O)cc1)C(=O)N[C@@H](CC(N)=O)C(=O)N[C@@H](CO)C(=O)N[C@H](C(=O)N[C@@H](CC(N)=O)C(=O)N[C@@H](CC(C)C)C(=O)N1CCC[C@H]1C(=O)N[C@@H](Cc1c[nH]cn1)C(=O)NCC(=O)N[C@@H](Cc1c[nH]cn1)C(=O)N[C@@H](CO)C(=O)N[C@H](C(=O)N[C@H](C(=O)N[C@@H](CCCNC(=N)N)C(=O)N[C@H](C(=O)O)C(C)C)[C@@H](C)O)[C@@H](C)O)[C@@H](C)O [NLGNX]

>  <value_type>
Ki

>  <quantitative_result>
31

$$$$

Moving on to the next compound.
// Ki (PSG G322A (PSD-95)) for CC(=O)N[C@@H](Cc1ccc(O)cc1)C(=O)N[C@H](C(=O)N[C@@H](CCC(=O)O)C(=O)N[C@@H](CO)C(=O)N[C@@H](CCCCN)C(=O)N[C@@H](CCCCN)C(=O)N[C@@H](Cc1c[nH]cn1)C(=O)NCC(=O)N[C@@H](CCCNC(=N)N)C(=O)N[C@@H](Cc1c[nH]c2ccccc12)C(=O)N[C@@H](CCCCN)C(=O)N[C@@H](CC(C)C)C(=O)N[C@@H](Cc1c[nH]c2ccccc12)C(=O)N[C@@H](Cc1ccccc1)C(=O)N[C@@H](CC(C)C)C(=O)O)[C@@H](C)O [INSY2] = 36

----------
- target_under_test: PSG G335A (PSD-95)
- assay_notes: FP displacement (competition) of FITC-15 AA CRIPT by library peptide, IC50 and Ki
- cond: read-out: IC50 (µM), PSG G335A; FP displacement of FITC-15 AA CRIPT probe by PSD library peptide; protein PSG G335A
Ends that are not written are not given here.
value_type: IC50 (µM)

>  <substance>
Ac-YEPPEPKKSRRSVLL [CDC42]

>  <IC50 / µM>
1180

$$$$
>  <substance>
Ac-YEKAASREEPIEWEF [CUX1]

>  <IC50 / µM>
1360

$$$$

These data points were gathered from paper PMC9490041.
